Method Summary: Drug interaction of sibutramine, clopidogrel, or chlorzoxazone with sauchinone in mice (plasma pharmacokinetics)
Cond: male, ICR, mouse, in vivo, po
Measured Parameter: CL/F

[
  {
    "Compound": "CC(C)CC(N(C)C)C1(c2ccc(Cl)cc2)CCC1 (stereo not shown) [Sibutramine, sibutramine]",
    "Readout Value": "0.205 mL/min/kg"
  }
]

----------
Assay System: CYP2C9 (Homo sapiens, UniProt P11712)
Construct: pooled human liver microsomes from a mixed pool of 50 donors; tissue BD Gentest Co. 452156; host or cells: human liver microsomes, pool of 50 donors
Sequence (P11712 whole entry): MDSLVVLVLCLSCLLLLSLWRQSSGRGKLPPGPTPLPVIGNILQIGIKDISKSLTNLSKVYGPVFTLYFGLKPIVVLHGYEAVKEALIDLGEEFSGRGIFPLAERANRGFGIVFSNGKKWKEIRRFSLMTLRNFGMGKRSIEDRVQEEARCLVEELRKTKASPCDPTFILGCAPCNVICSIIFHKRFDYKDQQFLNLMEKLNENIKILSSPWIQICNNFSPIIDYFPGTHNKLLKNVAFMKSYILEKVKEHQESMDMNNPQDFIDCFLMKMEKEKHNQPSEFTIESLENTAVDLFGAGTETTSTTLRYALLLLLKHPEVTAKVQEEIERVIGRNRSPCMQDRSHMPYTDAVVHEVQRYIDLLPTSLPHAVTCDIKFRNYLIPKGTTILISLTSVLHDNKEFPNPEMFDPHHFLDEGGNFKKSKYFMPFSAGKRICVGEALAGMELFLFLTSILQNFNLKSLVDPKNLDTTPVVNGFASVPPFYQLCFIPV
Method Summary: Time-dependent inhibition (TDI) IC50 shift assay on CYP2C9 in HLMs
Format: in vitro ADME
Cond: IC50 on CYP2C9, 30 min inactivation incubation (TDI), 30 min pre-incubation with NADPH, 10 min incubation
pIC50: −log10 of the molar value.
Measured Parameter: pIC50

[
  {
    "Entry Smiles": "C[C@@H]1[C@H]2c3cc4c(cc3O[C@@]35OCOC3=CC(=O)[C@H](C[C@H]1C)[C@@H]25)OCO4",
    "Readout Value": "< 3.52"
  }
]
